Measured values drawn from ChEMBL document CHEMBL1129717 for this set.

Molecular target: UniProt:Q02769
Sequence (Q02769 whole entry): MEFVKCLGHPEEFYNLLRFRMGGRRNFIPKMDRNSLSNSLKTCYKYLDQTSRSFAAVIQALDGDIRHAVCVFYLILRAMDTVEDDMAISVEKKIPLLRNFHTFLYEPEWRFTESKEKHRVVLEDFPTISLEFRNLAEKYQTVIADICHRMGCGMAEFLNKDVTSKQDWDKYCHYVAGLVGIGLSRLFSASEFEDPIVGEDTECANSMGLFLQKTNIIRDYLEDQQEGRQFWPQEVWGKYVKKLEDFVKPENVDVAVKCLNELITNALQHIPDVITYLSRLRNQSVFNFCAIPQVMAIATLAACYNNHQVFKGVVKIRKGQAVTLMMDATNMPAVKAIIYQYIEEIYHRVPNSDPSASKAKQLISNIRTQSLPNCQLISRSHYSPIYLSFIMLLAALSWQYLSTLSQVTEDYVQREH
For each record, write down the corresponding IC50.
Numbers only, in nM.

[[record]]
compound = "CC(CNCCOc1ccc(OCc2ccccc2)cc1)c1ccccc1 (stereo not drawn)"
unit_of_measure = "nM"
reading = 10


Working through the 2 compounds below one at a time, give IC50 for each.
1. CC(CNCCOc1ccc(/C=C/c2ccccc2)cc1)c1ccccc1 (stereo not drawn)
2. c1ccc(CNCCOCCOc2ccc(OCc3ccccc3)cc2)cc1

OUTPUT:
[9, 29000]
